target: Kir3.1/Kir3.2 (Homo sapiens, UniProt P48051+P48549); test: Activation of GIRK1/2 (unknown origin) by cell-based thallium flux assay
Sequence (P48549 whole entry): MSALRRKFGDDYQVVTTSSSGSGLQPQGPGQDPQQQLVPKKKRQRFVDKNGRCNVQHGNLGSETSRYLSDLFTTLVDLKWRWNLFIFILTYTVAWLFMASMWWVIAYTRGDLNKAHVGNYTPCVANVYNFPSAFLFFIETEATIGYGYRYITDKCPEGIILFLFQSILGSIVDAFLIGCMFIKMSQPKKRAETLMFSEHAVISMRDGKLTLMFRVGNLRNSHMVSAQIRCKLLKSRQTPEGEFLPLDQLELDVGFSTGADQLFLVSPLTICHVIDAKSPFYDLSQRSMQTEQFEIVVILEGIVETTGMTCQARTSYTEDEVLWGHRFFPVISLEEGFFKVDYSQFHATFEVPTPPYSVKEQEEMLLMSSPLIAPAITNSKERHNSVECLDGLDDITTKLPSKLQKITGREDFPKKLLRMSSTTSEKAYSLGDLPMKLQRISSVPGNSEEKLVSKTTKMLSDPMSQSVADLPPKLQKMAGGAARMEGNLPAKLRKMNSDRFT
Sequence (P48051 whole entry): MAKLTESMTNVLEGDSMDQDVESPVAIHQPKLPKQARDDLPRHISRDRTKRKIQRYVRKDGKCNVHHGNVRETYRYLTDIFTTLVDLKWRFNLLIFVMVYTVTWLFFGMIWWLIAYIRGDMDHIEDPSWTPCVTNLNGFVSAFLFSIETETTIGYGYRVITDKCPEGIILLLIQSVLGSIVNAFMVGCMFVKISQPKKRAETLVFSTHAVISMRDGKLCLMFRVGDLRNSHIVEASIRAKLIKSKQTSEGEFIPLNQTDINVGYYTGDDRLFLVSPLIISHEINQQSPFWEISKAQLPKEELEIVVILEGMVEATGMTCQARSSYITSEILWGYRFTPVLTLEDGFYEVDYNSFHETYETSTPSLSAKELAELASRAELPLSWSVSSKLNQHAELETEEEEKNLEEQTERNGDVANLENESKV
pEC50: −log10 of the molar value.
result_type: pEC50

# annotated cases, reported pEC50 shown
- smiles_input: "CN(C)S(=O)(=O)c1cccc(NC(=O)Cc2ccccc2Cl)c1"
  target_entity: "Kir3.1/Kir3.2 (Homo sapiens, UniProt P48051+P48549)"
  value_measured: 5.48
- smiles_input: "CN(C)S(=O)(=O)c1cccc(NC(=O)Cc2ccc(Cl)cc2)c1"
  target_entity: "Kir3.1/Kir3.2 (Homo sapiens, UniProt P48051+P48549)"
  value_measured: 5.64

1 = Cc1ccc(NC(=O)Cc2ccccc2Cl)cc1S(=O)(=O)N(C)C
2 = Cc1ccc(NC(=O)Cc2ccc(F)cc2)cc1S(=O)(=O)N(C)C
Query block: Which item exceeds the other in pEC50, 1 or 2 ? Pick one; state its label.
Result block: 1
